Test: Pharmacokinetic experiment (blood concentration by HPLC)
Assay type: in vivo, mice
Conditions: male, mouse, blood, intravenous, 20 mg/kg, Injection, time 180 min, read-out: blood concentration, mouse-2
Method: Test example 2: Pharmacokinetic experiment Male mice, each of which has a body weight of […] were used in the present pharmacokinetic experiment. Test compounds were formulated into 1% of solution and then, the solution was administered by oral route and by injection with a dose of 20mg/kg, respectively. […] Concentrations of test compounds in blood were measured by HPLC quantitative analysis and based on the results, pharmacokinetic parameters were calculated.
READOUT TYPE: concentration at 180 min (ng/mL)
Just the number in ng/mL, nothing appended.

### Prompt What does the data say about its concentration at 180 min? Entry: CO/N=C(\C(=O)NC1C(=O)N2C(C(=O)O)=C(Sc3cc(N)nc(N)n3)CSC12)c1csc(N)n1 (stereo not shown) [Compound No. 25]
### Response 600
